Molecular target: Neutrophil elastase (Homo sapiens) (UniProt P08246)
Sequence (whole entry): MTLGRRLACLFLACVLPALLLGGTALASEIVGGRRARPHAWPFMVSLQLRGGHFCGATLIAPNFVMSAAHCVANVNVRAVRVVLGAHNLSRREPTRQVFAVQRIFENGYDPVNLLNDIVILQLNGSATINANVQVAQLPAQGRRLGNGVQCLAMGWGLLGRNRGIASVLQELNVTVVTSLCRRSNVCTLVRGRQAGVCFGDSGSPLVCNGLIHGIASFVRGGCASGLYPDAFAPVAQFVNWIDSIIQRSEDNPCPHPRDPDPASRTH
Assay: Inhibition of human leukocyte elastase at 25 uM assessed as Kinact/Ki ratio incubated for 15 mins by spectrofluorometry
reported-metric: log10(Ratio) (log10 of the value in M⁻¹ s⁻¹)
Answers are given as log10 of Ratio in M⁻¹ s⁻¹.

Incoming: Consider the molecule CSc1ccc(OP(=O)(Oc2ccc(SC)cc2)C(C)NC(=O)[C@@H]2CCCN2C(=O)[C@@H](NC(=O)OC(C)(C)C)C(C)C)cc1 (mixture of isomers) and give its recorded log10(Ratio).
Outgoing: 3.54

Incoming: Tell me measured log10(Ratio) for CSc1ccc(OP(=O)(Oc2ccc(SC)cc2)C(NC(=O)[C@@H]2CCCN2C(=O)[C@H](COC(C)(C)C)NC(=O)OCc2ccccc2)C(C)C)cc1 (mixture of isomers) please.
Outgoing: 5.21
